Target: PRKAA1 (human) (UniProt Q13131)
Sequence (Q13131 whole entry, looked up): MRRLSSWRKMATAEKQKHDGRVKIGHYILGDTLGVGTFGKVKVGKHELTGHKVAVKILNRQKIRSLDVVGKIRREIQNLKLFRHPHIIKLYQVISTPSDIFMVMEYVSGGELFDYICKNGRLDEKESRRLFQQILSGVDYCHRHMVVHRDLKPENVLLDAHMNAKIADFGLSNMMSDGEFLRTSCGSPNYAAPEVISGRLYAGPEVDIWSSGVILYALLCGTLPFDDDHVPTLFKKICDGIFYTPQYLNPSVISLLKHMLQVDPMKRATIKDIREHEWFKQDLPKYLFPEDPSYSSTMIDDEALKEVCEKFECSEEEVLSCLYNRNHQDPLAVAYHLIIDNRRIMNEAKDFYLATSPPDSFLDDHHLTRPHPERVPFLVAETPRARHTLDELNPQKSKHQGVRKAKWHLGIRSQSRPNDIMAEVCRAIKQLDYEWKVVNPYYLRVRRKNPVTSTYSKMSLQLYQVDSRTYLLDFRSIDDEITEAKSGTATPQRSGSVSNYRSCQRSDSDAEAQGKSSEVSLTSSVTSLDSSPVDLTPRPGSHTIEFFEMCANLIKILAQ
Conditions: compound 10.0 µM
measured endpoint: inhibition (%)

smiles notation	system name	inhibition, %
N#C/C(=C(/N)Sc1ccc(N)cc1)c1ccccc1C(F)(F)F	PRKAA1 (human) (UniProt Q13131)	0
Cn1cc(C2=C(c3cn(CCCSC(=N)N)c4ccccc34)C(=O)NC2=O)c2ccccc21	PRKAA1 (human) (UniProt Q13131)	25
O=C1c2ccccc2-c2n[nH]c3cccc1c23	PRKAA1 (human) (UniProt Q13131)	0

I = O=C(Nc1cc(C(F)(F)F)cc(C(F)(F)F)c1)c1cc(Cl)ccc1O
II = O=C1NC(=O)C(c2ccccc2[N+](=O)[O-])=C1Nc1ccc(O)c(Cl)c1
III = Cn1cc(/C=C2/C(=O)Nc3cccnc32)c2ccccc21
Order the 3 compounds from highest to lowest inhibition. # format: label list in the order the request specifies
III, II, I
(III: 32%, II: 2%, I: 0%)
